Origin of values: ChEMBL document CHEMBL4715819

- study target: Bcl-2-like protein 1 (Homo sapiens) (UniProt Q07817)
- Sequence (Q07817 whole entry): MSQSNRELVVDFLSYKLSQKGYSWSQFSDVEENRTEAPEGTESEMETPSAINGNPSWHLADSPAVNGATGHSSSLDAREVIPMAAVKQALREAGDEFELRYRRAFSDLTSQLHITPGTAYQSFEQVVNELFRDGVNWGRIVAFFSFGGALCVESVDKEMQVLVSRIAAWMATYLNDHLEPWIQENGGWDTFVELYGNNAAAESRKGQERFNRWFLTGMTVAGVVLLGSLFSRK
- method notes: Binding affinity to human Bcl-xL incubated for 2 hrs by FBid based competitive FP assay
Calls of active or inactive are those of the source. No cut-off for these calls is given here. Positions of bridges follow the written chain, without caps; N, C: chain ends. Non-standard residues stand in square brackets, D forms with d. Residues, ends and D or L forms follow the SMILES beside them. ξ: configuration not given here. *: point of attachment. S5 = C=CCCC[C@](C)(N)C(=O)O; Acryloyl = C=CC(=O)*; Propionyl = CCC(=O)*; ξDap = NCC(N)C(=O)O
parameter: Activity

Inquiry: For Bcl-2-like protein 1 (Homo sapiens) (UniProt Q07817), give the measured Activity of the entry C=CC(=O)NCC(NC(=O)[C@@H](NC(C)=O)[C@@H](C)CC)C(=O)N[C@H](C(=O)N[C@@H](C)C(=O)N[C@@H](CCC(N)=O)C(=O)N[C@@H](CCC(=O)O)C(=O)N[C@@H](CC(C)C)C(=O)N[C@@H](CCCNC(=N)N)C(=O)N[C@@]1(C)CCC/C=C/CCC[C@@](C)(C(=O)N[C@@H](Cc2ccccc2)C(N)=O)NC(=O)[C@H](CC(=O)O)NC(=O)CNC(=O)[C@H]([C@@H](C)CC)NC1=O)[C@@H](C)CC (stereo not given in full) (Ac-I[ξDap](Acryloyl)IAQELR[S5]IGD[S5]F-NH2; staple (E) 9-13)
Reply text: inactive

Inquiry: For Bcl-2-like protein 1 (Homo sapiens) (UniProt Q07817), give the measured Activity of the entry C=CC(=O)NCC1NC(=O)[C@@](C)(NC(C)=O)CCC/C=C/CCC[C@@](C)(C(=O)N[C@@H](CCC(=O)O)C(=O)N[C@@H](CC(C)C)C(=O)N[C@@H](CCCNC(=N)N)C(=O)N[C@H]2CCCCNC(=O)C[C@@H](C(=O)N[C@@H](Cc3ccccc3)C(N)=O)NC(=O)[C@H](CC(=O)O)NC(=O)CNC(=O)[C@H]([C@@H](C)CC)NC2=O)NC(=O)[C@H](C)NC(=O)[C@H]([C@@H](C)CC)NC1=O (stereo not given in full) (Ac-[S5][ξDap](Acryloyl)IA[S5]ELRKIGDDF-NH2; staple (E) 1-5; lactam 9-13)
Reply text: inactive

Inquiry: For Bcl-2-like protein 1 (Homo sapiens) (UniProt Q07817), give the measured Activity of the entry C=CC(=O)NCC1NC(=O)[C@@H](NC(C)=O)CCCCNC(=O)C[C@@H](C(=O)N[C@@H](CCC(=O)O)C(=O)N[C@@H](CC(C)C)C(=O)N[C@@H](CCCNC(=N)N)C(=O)N[C@@]2(C)CCC/C=C/CCC[C@@](C)(C(=O)N[C@@H](Cc3ccccc3)C(N)=O)NC(=O)[C@H](CC(=O)O)NC(=O)CNC(=O)[C@H]([C@@H](C)CC)NC2=O)NC(=O)[C@H](C)NC(=O)[C@H]([C@@H](C)CC)NC1=O (stereo not given in full) (Ac-K[ξDap](Acryloyl)IADELR[S5]IGD[S5]F-NH2; lactam 1-5; staple (E) 9-13)
Reply text: inactive

Inquiry: For Bcl-2-like protein 1 (Homo sapiens) (UniProt Q07817), give the measured Activity of the entry CCC(=O)NCC1NC(=O)[C@@](C)(NC(C)=O)CCC/C=C/CCC[C@@](C)(C(=O)N[C@@H](CC(C)C)C(=O)N[C@@H](CC(C)C)C(=O)N[C@@H](CCCNC(=N)N)C(=O)N[C@H]2CCCCNC(=O)C[C@@H](C(=O)N[C@@H](Cc3ccccc3)C(N)=O)NC(=O)[C@H](CC(=O)O)NC(=O)CNC(=O)[C@H]([C@@H](C)CC)NC2=O)NC(=O)[C@H](C)NC(=O)[C@H]([C@@H](C)CC)NC1=O (stereo not given in full) (Ac-[S5][ξDap](Propionyl)IA[S5]LLRKIGDDF-NH2; staple (E) 1-5; lactam 9-13)
Reply text: inactive

Continuing:
Inquiry: For Bcl-2-like protein 1 (Homo sapiens) (UniProt Q07817), give the measured Activity of the entry C=CC(=O)NCC1NC(=O)[C@@H](NC(C)=O)CCCCNC(=O)C[C@@H](C(=O)N[C@@H](CCC(=O)O)C(=O)N[C@@H](CC(C)C)C(=O)N[C@@H](CCCNC(=N)N)C(=O)N[C@H]2CCCCNC(=O)C[C@@H](C(=O)N[C@@H](Cc3ccccc3)C(N)=O)NC(=O)[C@H](CC(=O)O)NC(=O)CNC(=O)[C@H]([C@@H](C)CC)NC2=O)NC(=O)[C@H](C)NC(=O)[C@H]([C@@H](C)CC)NC1=O (stereo not given in full) (Ac-K[ξDap](Acryloyl)IADELRKIGDDF-NH2; lactam 1-5, 9-13)
Reply text: inactive
